Tested on: SNB-75
assay_info: NCI tumour cell line growth inhibition, 48 h
Calls of active or inactive are those of the source. Rule as the data show it: active = GI50 up to about 1.1 µM and inactive = higher.
Outcomes: 1.0 for active, 0.0 for inactive

>>> class_assignment("COc1cc2cc3c4c(cc(OC)c(OC)c4c2cc1OC)CCN3C(=O)CCC(=O)NCCCN(C)C")
0.0
>>> class_assignment("C=C1C(=O)O[C@@H]2/C=C(/C)[C@@H](OC(C)=O)C/C=C(\\C)C(O)[C@@H](OC(=O)/C(C)=C\\C)C12 (stereo not given in full)")
0.0
>>> class_assignment("COc1ccc(/N=C2\\C(=N/c3ccc(OC)cc3)N(S(=O)(=O)c3ccccc3)C(=S)N2c2ccc(OC)cc2)cc1")
0.0
>>> class_assignment("O/N=C1/C(=C/c2ccc(Br)cc2)CCCC1C(NO)c1ccc(Br)cc1 (stereo not given)")
0.0
>>> class_assignment("CSc1nc(Nc2cccc(C(F)(F)F)c2)c2c(N)nn(C)c2n1")
0.0
>>> class_assignment("NC1=NNC(=O)c2nnc3c(C(=O)O)cnn3c2S1")
0.0
>>> class_assignment("O=C1NC(=O)C(c2c[nH]c3cc(Br)ccc23)=C1c1cnc[nH]1")
0.0
>>> class_assignment("Cc1nc(C(N)=S)sc1C(=O)/C=C/c1c(O)ccc2ccccc12")
0.0
>>> class_assignment("COc1ccc2cc(C(=O)NCCCNC(=O)c3ccc4cc(OC)ccc4c3)ccc2c1")
0.0
>>> class_assignment("CC(C)(O)/C=C\\P(=O)(O)O")
0.0
>>> class_assignment("O=[N+]([O-])CCc1cccc([N+](=O)[O-])c1")
0.0
>>> class_assignment("Nc1ccc2c(c1)N(C(=O)c1cc3cc(NC(=O)c4cc5ccccc5o4)ccc3[nH]1)CC2CCl (stereo not given)")
1.0
>>> class_assignment("CCCCCCCCCCNCCSSCc1ccc(Cl)cc1")
0.0
>>> class_assignment("COC1=C2C[C@](OC)(C#CC=CC#CC2O)CC1(C)C (stereo not given in full)")
0.0
>>> class_assignment("CN(Cc1ccccc1)c1nc(=[N+](C)C)ss1")
0.0
>>> class_assignment("CCCC(=O)N[C@H]1CCc2cc(OC)c(OC)c(OC)c2-c2ccc(SC)c(=O)cc21")
1.0
>>> class_assignment("CC(C)[C@@H]1CC[C@@H](C)C[C@H]1OC(=O)/C=C1\\C(C(=O)O[C@@H]2C[C@H](C)CC[C@H]2C(C)C)[C@H]2C=C[C@@H]1O2 (stereo not given in full)")
0.0
>>> class_assignment("COc1ccc(C(C#N)NNc2nc(C)cc(O)n2)cc1OC (stereo not given)")
0.0
>>> class_assignment("O=[N+]([O-])C(C(Cl)=C(Cl)Cl)=C(N(Cc1ccccc1)Cc1ccccc1)N(Cc1ccccc1)Cc1ccccc1")
0.0
>>> class_assignment("Nc1nc(NC2C=C(CO)C(O)C2O)c([N+](=O)[O-])c(=O)[nH]1 (stereo not given)")
0.0
>>> class_assignment("O=[N+]([O-])c1ccc(Cl)cc1C1ON=C(c2ccccc2)N1C12CC3CC(CC(C3)C1)C2 (stereo not given)")
1.0
>>> class_assignment("Cc1cc(C)nc(NC(=O)c2ccc(Br)s2)c1")
0.0
>>> class_assignment("CC1Cn2c(nc3ccccc32)NC1=O (stereo not given)")
0.0
>>> class_assignment("C#CC[N+](C)(CC#C)CC#C")
0.0
>>> class_assignment("C[N+](C)(C)CC1CCC(C[N+](C)(C)C)C1=NO (stereo not given)")
0.0
>>> class_assignment("CC(C)=C[C@H]1C[C@H](C)[C@H]2CC[C@H](C)c3c2c1c(C)c1ncoc31")
0.0
>>> class_assignment("Oc1c(CN2CCN(c3ccccc3)CC2)cc(Br)c2cccnc12")
0.0
>>> class_assignment("C[C@]12CCC(=O)C=C1C[C@@H](O)[C@@H]1[C@@H]2CC[C@@]2(C)[C@H]1CC[C@]2(C)O")
0.0
>>> class_assignment("CSC(SC)=C1C(=O)N(c2ccccc2)N=C1C")
0.0
>>> class_assignment("Clc1ccccc1CN1COc2c(cc(Cl)c3cccnc23)C1")
0.0
>>> class_assignment("CC(=O)N(N=O)c1ccc(N(N=O)C(C)=O)cc1")
0.0
>>> class_assignment("C=CCC(CNC(=O)OCc1ccccc1)OC(=O)OCc1ccccc1 (stereo not given)")
0.0
>>> class_assignment("CCOC(=S)SC/C(=N\\OC(C)(C)OC)c1ccccc1")
1.0
>>> class_assignment("Cc1ccc(N/N=C2\\C3=C(CCC(C)(C)O3)C(=O)c3ccccc32)cc1")
0.0
>>> class_assignment("Oc1ccccc1-c1nnc(S)n1/N=C/c1ccc(-c2ccc(Br)cc2)o1")
0.0
>>> class_assignment("O=C(C1=C(C(=O)c2ccccc2)SC2(S1)C(C(=O)c1ccccc1)=C(C(=O)c1ccccc1)Sc1c2ssc1=O)c1ccccc1")
0.0
>>> class_assignment("CC(=O)CCNc1ccc(-c2cc(-c3ccc(N(C)C)cc3)nc3ccc4ccccc4c23)cc1")
0.0
>>> class_assignment("COc1cc(C=O)c(-c2cc(OC)c(OC)cc2C=O)cc1OC")
0.0
>>> class_assignment("Cc1ccc(C(=O)Nc2ccc(CP(=O)(O)O)cc2CP(=O)(O)O)cc1NC(=O)c1cccc(NC(=O)Nc2cccc(C(=O)Nc3cc(C(=O)Nc4ccc(CP(=O)(O)O)cc4CP(=O)(O)O)ccc3C)c2)c1")
0.0
>>> class_assignment("COc1ccc(C2=NOP(c3ccccc3)(c3ccccc3)(c3ccccc3)C2)cc1")
0.0
